Where do the numbers come from? From the RNAGym collection of RNA variant scans (doi:10.1126/science.aae0568).

B1: tRNA (parent)
chain: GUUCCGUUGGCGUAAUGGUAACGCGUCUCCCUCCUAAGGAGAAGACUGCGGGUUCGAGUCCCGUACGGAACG

- Variants of: B1
- assay: yeast fitness relative to wild type (ratio to wild type); higher = fitter; tRNA-Arg(CCU), competitive growth, 37 C, YPD
This sample holds only a part of the variants without activity.
observation.type: yeast fitness
Just the number, please, no unit after it.

Use the examples below as a reference point.
INSERT INTO assay_data (variant_description, observation_type, data_value) VALUES
  ('G23C G41A', 'yeast fitness', 0.716),
  ('C24U U35C', 'yeast fitness', 0.778),
  ('G6C C55G', 'yeast fitness', 0.695),
  ('A21U A43U', 'yeast fitness', 0.901),
  ('C22G G23A C30G A65C', 'yeast fitness', 0.535);

// recorded yeast fitness for C4U C11U G44C : 0.702

Item: C4G C29G | yeast fitness: 0.69

Looking up G58C C66G , I see its yeast fitness listed as 0.711

Item: C31A G39A G48A C61U A65C | yeast fitness: 0.5

GET /value?item= C22G G23U &field=yeast fitness returns 0.73

Reported yeast fitness ( A42C C62U A69U ) = 0.689
